# system_name: M2 protein of A/Hong Kong/483/1997, expressed on cells (Influenza A virus A/Hong Kong/483/1997 (H5N1))

binder	FACS M2-HK MFI / MFI
3252_C13 (antibody, V domains shown) VH: QVQLQESGPGLVKPSETLSLTCTVSGASISSDYWSWIRLPPGKGLEWIGYIYNRGSTKYTPSLKSRVTISLDTAENQFSLRLRSVTAADTAIYYCARHVGGHTYGIDYWGQGTLVTVSS VL: DIQMTQSPSSLSASVGDRVTITCRASQSISNYLNWYQHKPGEAPKLLNYAASSLQSGVPSRFSASGSGTDFTLTISSLQPEDFATYYCQQSYNTPITFGQGTRLEIK	449
3420_I23 (antibody, V domains shown) VH: QVQLQESGPGLVKPSETLSVTCKVSGDSISSYSWSWIRQPPGKGLEWVGYLYYSGSTKYNPSLKSRTTISVDTSTNQLSLKLSFVTAADTAVYFCARTGSESTTGYGMDVWGQGTTVTVSS VL: DIQMTQSPSSLSASVGDRVTITCRASQSISTYLNWYQQKPGKAPKLLIYAASSLHSGVPSRFSGSGSGTDFALTISSLQPEDFATYYCQQSYSPPITFGQGTRLEIK	112

Ref: patent US20110070235A1
